test system: A498; assay: NCI tumour cell line growth inhibition, 48 h
Activity calls are given as the source filed them. Cut-off read from the data, not from the text of the source: active = GI50 up to about 1.1 µM and inactive = higher.
Outcome codes: Yes for active, No for inactive

{"molecule": "CC12C3C4C1C1C2C3C41CO (stereo not drawn)", "discrete-label": "No"}
{"molecule": "O=C1NC(c2cccc3ccccc23)Nc2ccccc21 (stereo not drawn)", "discrete-label": "Yes"}
{"molecule": "N/N=C(\\Cc1ccccc1)NN=C(N)N", "discrete-label": "No"}
{"molecule": "O=[N+]([O-])C(/C(Cl)=C(/Cl)N1CCOCC1)=C1\\NCCO1", "discrete-label": "No"}
{"molecule": "Cc1ccc(C2(O)c3ccccc3C(=O)N(C)C2(O)c2ccc(C)cc2)cc1 (stereo not drawn)", "discrete-label": "No"}
{"molecule": "COc1ccc2c(c1)OC[C@@H]1c3cc(O)c(OCc4ccccc4)cc3O[C@H]21", "discrete-label": "No"}
{"molecule": "N/C(=N\\c1ccccc1Cl)c1ccccc1N", "discrete-label": "No"}
{"molecule": "N=C(CC(=O)NOC(=O)c1ccccc1)NOC(=O)c1ccccc1", "discrete-label": "No"}
{"molecule": "NC(=O)N/N=C(\\CC1OC(=O)c2ccccc21)c1ccco1 (stereo not drawn)", "discrete-label": "No"}
{"molecule": "FC(F)(F)c1ccc2c(c1)nc1n2C(c2c(Cl)cccc2Cl)SC1 (stereo not drawn)", "discrete-label": "No"}
{"molecule": "O=Cc1cc(O)ccc1Br", "discrete-label": "No"}
{"molecule": "Cc1ccc(O)c(C(c2ccc([N+](=O)[O-])cc2)c2cc(C)ccc2O)c1", "discrete-label": "No"}
{"molecule": "CC(=O)c1[nH]c(Nc2ccc(C)cc2)c(C(=S)Nc2ccccc2)c1N", "discrete-label": "No"}
